Measurement Target: T1, 4H3969-AA
T1 chain: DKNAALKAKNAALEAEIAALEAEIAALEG
Protocol Details: two-hybrid library CCmax;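 further: natural log of median RNA to DNA barcode read ratio; higher means stronger binding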
Recorded Conditions: mean of both orientations
Would you kindly list interaction score for each of these binders?
One number for each entry.

These recorded examples may help you get a feel for the data.
{"columns": ["Binder", "interaction score"],
 "data": [
  ["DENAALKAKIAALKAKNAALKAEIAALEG [4H1913-AA]", -0.832],
  ["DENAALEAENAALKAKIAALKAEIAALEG [4H1257-AA]", 0.285],
  ["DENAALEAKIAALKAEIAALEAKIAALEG [4H1349-AA]", -1.13]
]}

Go through the items and report each one's interaction score.
1. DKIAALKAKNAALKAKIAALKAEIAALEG [4H3049-AA]
2. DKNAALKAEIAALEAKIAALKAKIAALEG [4H3629-AA]
3. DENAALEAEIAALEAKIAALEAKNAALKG [4H1064-AA]
4. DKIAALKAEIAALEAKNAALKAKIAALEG [4H2621-AA]

(A)
-0.09
-1.01
-1.31
-1.35

The values you see were collected from paper PMC10397247.
